The following compounds are listed with their measured GI50 values.
System: MDA-N
Assay: NCI tumour cell line growth inhibition, 48 h
The source made the active and inactive calls. No stated cut-off is given here; in the data, active = GI50 up to about 1.1 µM and inactive = higher.

Below, each entry is followed by its recorded GI50 result.
Enquiry: Which GI50 value is on record for O=CNCCCN1CCN(CCCNC=O)CC1 ?
Return: > 100 µM (inactive)

Enquiry: Param item: O=C(Nc1ccc(Cl)cc1)c1cc(S(=O)(=O)Nc2n[nH]c(=O)[nH]2)c(SSc2cc(Cl)c(C(=O)Nc3ccc(Cl)cc3)cc2S(=O)(=O)Nc2n[nH]c(=O)[nH]2)cc1Cl
Return: > 100 µM (inactive)

Enquiry: Please answer likewise for CCOP(=O)(O)CN1CCNCCN(CP(=O)(O)OCC)CCNCC1
Return: > 100 µM (inactive)

Enquiry: And the next one, CCSC1=N/C(=C/c2ccccc2O)C(=O)N1 ?
Return: > 100 µM (inactive)

Enquiry: Do the same for COc1cc([N+](=O)[O-])ccc1NC1=CC(=O)CCC1 please
Return: > 100 µM (inactive)

---
Enquiry: What does the data say about its GI50? Entry: C=C1C(=O)O[C@@]23C1CC[C@@H](C)C2CC[C@@]1(C)OC31 (some centres not stated)
Return: 5.09 µM (inactive)

Enquiry: Cool, now Cn1c(=S)c2nc(SCCCc3ccccc3)[nH]c2n(C)c1=O
Return: 21.8 µM (inactive)

Enquiry: Quick one: CCCCC[C@H]1CCCCCCCCCC(=O)OC2C(O[C@@H]3OC(C)[C@H](OC(=O)[C@@H](C)CC)C(O[C@@H]4OC(C)[C@H](O)C(O)[C@@H]4O)[C@@H]3OC(=O)[C@H](C)CC)[C@H](OC3C(O)[C@@H](O)C(C)O[C@H]3O1)OC(CO)[C@H]2O (some centres not stated)
Return: 17.4 µM (inactive)

Enquiry: Query CC(=O)NC(Cc1ccc(OP(=O)(OCc2ccc([N+](=O)[O-])o2)N(C)CCCCCl)cc1)C(=O)NC(C)c1ccc(OCC2CCCCC2)c(C(N)=O)c1 (configuration not stated) next
Return: 2.24 µM (inactive)

Enquiry: Subsequent entry: CC(C)(C)c1ccc(C(C)(C)C)c(N2C(=O)[C@@H]3[C@@H]4C=C[C@@H](C4)[C@]3(C)C2=O)c1
Return: 14 µM (inactive)

Enquiry: Now this one: COc1ccc2cc(C(=O)NCCCNC(=O)c3ccc4c(OC)c(OC)ccc4c3)ccc2c1OC
Return: > 100 µM (inactive)
